IC50 values for the molecules below.
target: Avi-KRAS G12V (1-169) GppNHp/RAF1 RBD-3xFLAG (52-151) (Homo sapiens, UniProt P01116, G12V); construct: Avi-KRAS G12V (1-169); experiment: Raf1-KRAS G12V-GppNHP disruption HTRF assay (Biological Example 1); assay type: binding; settings: KRAS G12V, GppNHp-loaded; class symbols
Sequence (P01116 1-169 isoform P01116-2 G12V): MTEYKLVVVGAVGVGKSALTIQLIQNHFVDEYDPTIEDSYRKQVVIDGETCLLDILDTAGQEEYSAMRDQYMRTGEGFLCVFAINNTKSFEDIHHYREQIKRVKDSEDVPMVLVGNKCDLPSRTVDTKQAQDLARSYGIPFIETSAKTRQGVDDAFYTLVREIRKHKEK

| molecule | reported |
| --- | --- |
| CCN(c1nc(OC[C@@]23CCCN2C[C@H](F)C3)nc2c(F)c(-c3ccc(F)c4sc(N)c(C#N)c34)c(C(F)(F)F)cc12)[C@H]1CCN(C(=O)N2CCN(C(C)=O)CC2)C1 (atropisomer, axis not shown) [Compound 619] | < 100 nM |
| CCN(c1nc(OC[C@@]23CCCN2C[C@H](F)C3)nc2c(F)c(-c3ccc(F)c4sc(N)c(C#N)c34)c(C(F)(F)F)cc12)[C@H]1CCN(C(=O)[C@H]2CCO2)C1 (atropisomer, axis not shown) [Compound 577] | < 100 nM |
| CCN(c1nc(OC[C@@]23CCCN2C[C@H](F)C3)nc2c(F)c(-c3ccc(F)c4sc(N)c(C#N)c34)c(C(F)(F)F)cc12)[C@H]1C[C@@H](C)N(C(=O)[C@H]2CCO2)C1 (atropisomer, axis not shown) [Compound 752] | 100 to 1000 nM |
| CN(C)C(=O)N1CC[C@H]2[C@@H]1CN2c1nc(OC[C@@]23CCCN2C[C@H](F)C3)nc2c(F)c(-c3ccc(F)c4sc(N)c(C#N)c34)c(C(F)(F)F)cc12 (atropisomer, axis not shown) [Compound 728] | 1000 to 10000 nM |
| CCN(c1nc(OC[C@@]23CCCN2C[C@H](F)C3)nc2c(F)c(-c3ccc(F)c4sc(N)c(C#N)c34)c(C(F)(F)F)cc12)[C@H]1CCN(C(=O)[C@@H]2CC2(F)F)[C@@H]1C (atropisomer, axis not shown) [Compound 693] | < 100 nM |

Report IC50, nothing else, for this molecule: Cc1c(C(=O)N2CCC2)nn2c1CN(c1nc(OCC34CCCN3CC(F)C4)nc3c(F)c(-c4ccc(F)c5sc(N)c(C#N)c45)c(C(F)(F)F)cc13)CC2 (centres unmarked) [Compound 742]
100 to 1000 nM

Report IC50, nothing else, for this molecule: CCN(c1nc(OC[C@@]23CCCN2C[C@H](F)C3)nc2c(F)c(-c3ccc(F)c4sc(N)c(C#N)c34)c(C(F)(F)F)cc12)[C@H]1C[C@@H](C)N(C(=O)[C@H](C)OC)C1 (atropisomer, axis not shown) [Compound 753]
100 to 1000 nM

Report IC50, nothing else, for this molecule: CCN(c1nc(OC[C@@]23CCCN2C[C@H](F)C3)nc2c(F)c(-c3ccc(F)c4sc(N)c(C#N)c34)c(C(F)(F)F)cc12)[C@H]1CCN(C(=O)OCC2CC2)C1 (atropisomer, axis not shown) [Compound 620]
< 100 nM

* * *

biological target: Avi-KRAS G12R (1-169) GppNHp/RAF1 RBD-3xFLAG (52-151) (Homo sapiens, UniProt P01116, G12R); construct: Avi-KRAS G12R (1-169); assay: Raf1-KRAS G12R-GppNHP disruption HTRF assay (Biological Example 1); assay type: binding; conditions: KRAS G12R, GppNHp-loaded; class symbols
Sequence (P01116 1-169 isoform P01116-2 G12R): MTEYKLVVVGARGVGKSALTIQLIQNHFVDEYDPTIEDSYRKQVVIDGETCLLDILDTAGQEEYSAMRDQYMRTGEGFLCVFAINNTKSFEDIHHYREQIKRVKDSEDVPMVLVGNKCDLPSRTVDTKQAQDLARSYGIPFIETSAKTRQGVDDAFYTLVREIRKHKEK
pIC50: −log10 of the molar value.
pIC50 values for the molecules below.

| molecule | pIC50 |
| --- | --- |
| C[C@H](c1cccnc1N)N(C)c1nc(OC[C@@]23CCCN2C[C@H](F)C3)nc2c(F)c(-c3ccc(F)c4sc(N)c(C#N)c34)c(C(F)(F)F)cc12 (atropisomer, axis not shown) | > 7.00 |
| CCN(c1nc(OC[C@@]23CCCN2C[C@H](F)C3)nc2c(F)c(-c3ccc(F)c4sc(N)c(C#N)c34)c(C(F)(F)F)cc12)[C@H]1C[C@H](COC)N(C(C)=O)C1 (atropisomer, axis not shown) | 6.00 to 7.00 |
| CCN(c1nc(OC[C@@]23CCCN2C[C@H](F)C3)nc2c(F)c(-c3ccc(F)c4sc(N)c(C#N)c34)c(C(F)(F)F)cc12)[C@H]1CCN(C(=O)N2CC(OC(F)F)C2)C1 (atropisomer, axis not shown) | > 7.00 |

Field: next molecule
Report pIC50, nothing else, for this molecule: CN(c1nc(OC[C@@]23CCCN2C[C@H](F)C3)nc2c(F)c(-c3ccc(F)c4sc(N)c(C#N)c34)c(C(F)(F)F)cc12)[C@H]1CC(=O)N(C2CC2)C1 (atropisomer, axis not shown)
> 7.00
